Just for reference, paper PMC10397247 is where these values come from.

Target: T1, 4H605-AA
T1 chain: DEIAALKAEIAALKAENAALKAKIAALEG
Test: two-hybrid library CCmax;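 also: natural log of median RNA to DNA barcode read ratio; higher means stronger binding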
Conditions: mean of both orientations
quantity: interaction score

# binder, testResult
records = [
    ("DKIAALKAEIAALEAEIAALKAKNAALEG [4H2575-AA]", -1.27),
    ("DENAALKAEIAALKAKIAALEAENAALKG [4H1636-AA]", -1.56),
    ("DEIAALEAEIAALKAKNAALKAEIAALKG [4H122-AA]", 0.129),
    ("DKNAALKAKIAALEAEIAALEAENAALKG [4H3844-AA]", -1.48),
    ("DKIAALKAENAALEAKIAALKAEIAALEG [4H2729-AA]", -1.37),
    ("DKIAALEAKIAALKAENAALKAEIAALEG [4H2393-AA]", 0.852),
]

A = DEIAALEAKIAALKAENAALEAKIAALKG [4H342-AA]
B = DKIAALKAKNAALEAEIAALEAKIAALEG [4H2949-AA]
C = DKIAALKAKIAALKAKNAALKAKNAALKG [4H2944-AA]
Your job: order these 3 records by interaction score, ascending. Enter labels, ranked according to the request.
C, B, A
(C: -1.34, B: -0.239, A: 1.41)
